target: NPFFR1 (Homo sapiens, UniProt Q9GZQ6); construct: purchased Promega (in-house HiBiT-GPCR construct library, NanoBRET); test: NanoBRET screen HiBiT-NPFFR1 in HEK293; type: binding; conditions: NPFFR1; tracer 1μM
Sequence (Q9GZQ6 whole entry): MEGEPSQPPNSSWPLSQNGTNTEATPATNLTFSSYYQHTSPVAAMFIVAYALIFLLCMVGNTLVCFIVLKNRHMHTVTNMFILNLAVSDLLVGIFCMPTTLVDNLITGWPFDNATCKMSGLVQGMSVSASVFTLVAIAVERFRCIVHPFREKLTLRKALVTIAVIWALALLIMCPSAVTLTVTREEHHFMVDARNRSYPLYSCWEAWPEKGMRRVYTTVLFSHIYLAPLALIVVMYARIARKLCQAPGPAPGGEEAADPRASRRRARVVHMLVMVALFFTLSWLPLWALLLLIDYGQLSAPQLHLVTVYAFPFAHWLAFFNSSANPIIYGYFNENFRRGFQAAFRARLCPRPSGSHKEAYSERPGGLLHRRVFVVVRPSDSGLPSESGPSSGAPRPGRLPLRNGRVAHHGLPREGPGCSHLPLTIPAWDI
observable: NanoBRET Fold Response

compound	result
CCCn1c(=O)c2[nH]c(-c3ccc(OCC(=O)NCCNC(=O)CCOCCNC(=O)c4ccc(CNC(=O)CCc5ccc6n5[B-](F)(F)[N+]5=C(c7ccc[nH]7)C=CC5=C6)cc4)cc3)nc2n(CCC)c1=O	1.01

Consider the compound `N#CN=C(NCCCOc1cccc(CN2CCCCC2)c1)NCCNC(=O)CCOCCOCCOCCOCCNC(=O)CCc1ccc2n1[B-](F)(F)[N+]1=C(c3ccc[nH]3)C=CC1=C2` . State its measured NanoBRET Fold Response.
1.02

Consider the compound `COc1ccccc1N1CCN(CCCCN2C(=O)c3ccc(CNC(=O)CCOCCOCCOCCOCCNC(=O)CCc4ccc5n4[B-](F)(F)[N+]4=C(c6ccc[nH]6)C=CC4=C5)cc3C2=O)CC1` . State its measured NanoBRET Fold Response.
1.02

Consider the compound Cc1nc2n(c(=O)c1CCN1CCC(c3noc4cc(F)ccc34)CC1)CCCC2OC(=O)NCCOCCOCCOCCOCCNC(=O)CCc1ccc2n1[B-](F)(F)[N+]1=C(c3ccc[nH]3)C=CC1=C2 (stereo not shown) . State its measured NanoBRET Fold Response.
0.95

---

molecular target: SSTR1 (Homo sapiens); construct: purchased Promega (in-house HiBiT-GPCR construct library, NanoBRET); assay: NanoBRET screen HiBiT-SSTR1 in HEK293; format: binding; conditions: SSTR1; tracer 0.1μM
Sequence (P30872 whole entry): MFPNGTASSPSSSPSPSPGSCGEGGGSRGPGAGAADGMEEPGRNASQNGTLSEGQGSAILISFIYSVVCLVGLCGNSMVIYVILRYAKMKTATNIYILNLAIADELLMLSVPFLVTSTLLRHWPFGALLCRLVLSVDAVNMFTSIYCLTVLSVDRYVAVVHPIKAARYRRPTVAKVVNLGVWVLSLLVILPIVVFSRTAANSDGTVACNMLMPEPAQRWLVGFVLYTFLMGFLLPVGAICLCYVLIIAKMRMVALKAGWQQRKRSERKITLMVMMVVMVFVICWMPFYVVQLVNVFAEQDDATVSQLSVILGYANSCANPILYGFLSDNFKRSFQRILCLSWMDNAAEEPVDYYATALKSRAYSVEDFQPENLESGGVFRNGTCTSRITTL
observable: NanoBRET Fold Response
Just the number, please.

Consider the molecule `O=C(CCc1ccc2n1[B-](F)(F)[N+]1=C(c3ccc[nH]3)C=CC1=C2)NCCOCCOCCNC(=O)OCCOCCN1CCN(C2=Nc3ccccc3Sc3ccccc32)CC1` tested on SSTR1 (Homo sapiens); state its NanoBRET Fold Response.
0.92

Consider the molecule `CC(C)N(CC[C@H](c1ccccc1)c1cc(CCNC(=O)c2ccc(CNC(=O)CCc3ccc4n3[B-](F)(F)[N+]3=C(c5ccc[nH]5)C=CC3=C4)cc2)ccc1O)C(C)C` tested on SSTR1 (Homo sapiens); state its NanoBRET Fold Response.
1.15

Consider the molecule `COc1ccccc1N1CCN(CCCCN2C(=O)c3ccc(CNC(=O)CCOCCNC(=O)c4ccc(CNC(=O)CCc5ccc6n5[B-](F)(F)[N+]5=C(c7ccc[nH]7)C=CC5=C6)cc4)cc3C2=O)CC1` tested on SSTR1 (Homo sapiens); state its NanoBRET Fold Response.
1.03

---

target: DRD5 (Homo sapiens); construct: purchased Promega (in-house HiBiT-GPCR construct library, NanoBRET); assay: NanoBRET screen HiBiT-DRD5 in HEK293; format: binding; details: DRD5; tracer 0.1μM
Sequence (P21918 whole entry): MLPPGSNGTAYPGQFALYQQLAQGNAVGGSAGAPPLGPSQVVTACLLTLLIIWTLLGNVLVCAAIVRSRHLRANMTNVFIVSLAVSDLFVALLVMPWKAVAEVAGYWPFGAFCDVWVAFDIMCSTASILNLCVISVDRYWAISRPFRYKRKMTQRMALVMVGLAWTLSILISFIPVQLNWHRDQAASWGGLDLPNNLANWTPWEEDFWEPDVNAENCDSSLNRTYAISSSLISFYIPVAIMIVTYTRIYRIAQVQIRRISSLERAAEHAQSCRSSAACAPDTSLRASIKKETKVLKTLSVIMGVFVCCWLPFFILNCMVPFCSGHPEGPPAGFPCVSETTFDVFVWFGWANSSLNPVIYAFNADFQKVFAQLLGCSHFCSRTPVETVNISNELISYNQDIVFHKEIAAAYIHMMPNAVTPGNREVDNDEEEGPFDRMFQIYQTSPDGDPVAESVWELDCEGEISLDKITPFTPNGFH
NanoBRET Fold Response listing for selected compounds.
Just the number, please.

Below: 4 compounds and their reported NanoBRET Fold Response.
compound	tested-on	number
Cc1cc2c(s1)Nc1ccccc1N=C2N1CCN(CCCNC(=O)CCOCCOCCOCCOCCNC(=O)CCc2ccc3n2[B-](F)(F)[N+]2=C(c4ccc[nH]4)C=CC2=C3)CC1	DRD5 (Homo sapiens)	1.20
CC(C)N(CC[C@H](c1ccccc1)c1cc(CCNC(=O)CCOCCOCCOCCOCCNC(=O)CCc2ccc3n2[B-](F)(F)[N+]2=C(c4ccc[nH]4)C=CC2=C3)ccc1O)C(C)C	DRD5 (Homo sapiens)	1.01
Cc1nc2n(c(=O)c1CCN1CCC(c3noc4cc(F)ccc34)CC1)CCCC2OC(=O)NCCOCCOCCOCCOCCNC(=O)CCc1ccc2n1[B-](F)(F)[N+]1=C(c3ccc[nH]3)C=CC1=C2 (centres unmarked)	DRD5 (Homo sapiens)	1.92
O=C(CCc1ccc2n1[B-](F)(F)[N+]1=C(c3ccc[nH]3)C=CC1=C2)NCCOCCOCCNC(=O)OCCOCCN1CCN(C2=Nc3ccccc3Sc3ccccc32)CC1	DRD5 (Homo sapiens)	1.09

Now for the compound whose NanoBRET Fold Response we want.
Consider the compound `COc1ccccc1N1CCN(CCCCN2C(=O)c3ccc(CNC(=O)CCOCCOCCOCCOCCNC(=O)CCc4ccc5n4[B-](F)(F)[N+]4=C(c6ccc[nH]6)C=CC4=C5)cc3C2=O)CC1` tested on DRD5 (Homo sapiens); state its NanoBRET Fold Response.
1.02

---

molecular target: P2RY6 (Homo sapiens, UniProt Q15077); construct: purchased Promega (in-house HiBiT-GPCR construct library, NanoBRET); assay: NanoBRET screen HiBiT-P2RY6 in HEK293; type: binding; settings: P2RY6; tracer 1μM
Sequence (Q15077 whole entry): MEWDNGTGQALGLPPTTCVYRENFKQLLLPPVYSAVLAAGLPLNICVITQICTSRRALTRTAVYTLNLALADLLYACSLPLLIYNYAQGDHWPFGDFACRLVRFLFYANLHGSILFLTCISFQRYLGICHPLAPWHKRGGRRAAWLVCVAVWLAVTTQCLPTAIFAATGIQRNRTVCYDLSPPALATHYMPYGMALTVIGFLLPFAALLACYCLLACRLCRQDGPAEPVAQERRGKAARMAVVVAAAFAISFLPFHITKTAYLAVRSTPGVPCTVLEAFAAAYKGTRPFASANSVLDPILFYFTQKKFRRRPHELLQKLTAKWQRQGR
observable: NanoBRET Fold Response

Below: 2 compounds and their reported NanoBRET Fold Response.
structure	tested-on	NanoBRET Fold Response
CC(C)N(CC[C@H](c1ccccc1)c1cc(CCNC(=O)CCOCCOCCOCCOCCNC(=O)CCc2ccc3n2[B-](F)(F)[N+]2=C(c4ccc[nH]4)C=CC2=C3)ccc1O)C(C)C	P2RY6 (Homo sapiens, UniProt Q15077)	0.98
CCCn1c(=O)c2[nH]c(-c3ccc(OCC(=O)NCCNC(=O)CCOCCNC(=O)c4ccc(CNC(=O)CCc5ccc6n5[B-](F)(F)[N+]5=C(c7ccc[nH]7)C=CC5=C6)cc4)cc3)nc2n(CCC)c1=O	P2RY6 (Homo sapiens, UniProt Q15077)	1.12

Now for the compound whose NanoBRET Fold Response we want.
Consider the compound `N#CN=C(NCCCOc1cccc(CN2CCCCC2)c1)NCCNC(=O)CCOCCOCCOCCOCCNC(=O)CCc1ccc2n1[B-](F)(F)[N+]1=C(c3ccc[nH]3)C=CC1=C2` . State its measured NanoBRET Fold Response.
0.86

---

molecular target: NMUR1 (Homo sapiens, UniProt Q9HB89); construct: purchased Promega (in-house HiBiT-GPCR construct library, NanoBRET); assay: NanoBRET screen HiBiT-NMUR1 in HEK293; assay type: binding; conditions: NMUR1; tracer 0.1μM
Sequence (Q9HB89 whole entry): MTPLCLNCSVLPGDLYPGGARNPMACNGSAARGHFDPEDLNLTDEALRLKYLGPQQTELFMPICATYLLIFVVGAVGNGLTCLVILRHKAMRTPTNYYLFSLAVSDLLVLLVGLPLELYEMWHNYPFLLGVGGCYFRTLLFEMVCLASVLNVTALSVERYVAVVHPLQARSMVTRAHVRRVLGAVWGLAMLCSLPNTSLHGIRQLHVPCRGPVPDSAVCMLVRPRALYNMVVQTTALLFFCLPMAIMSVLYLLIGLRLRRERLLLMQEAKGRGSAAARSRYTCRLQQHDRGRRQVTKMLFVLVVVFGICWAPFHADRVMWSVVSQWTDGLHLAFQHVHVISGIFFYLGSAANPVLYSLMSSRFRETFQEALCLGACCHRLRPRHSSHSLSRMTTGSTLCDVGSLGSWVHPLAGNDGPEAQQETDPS
observable: NanoBRET Fold Response
Just the number, please.

Below: 2 compounds and their reported NanoBRET Fold Response.
compound	observable	number
N#CN=C(NCCCOc1cccc(CN2CCCCC2)c1)NCCNC(=O)CCOCCOCCOCCOCCNC(=O)CCc1ccc2n1[B-](F)(F)[N+]1=C(c3ccc[nH]3)C=CC1=C2	NanoBRET Fold Response	1.05
COc1ccccc1N1CCN(CCCCN2C(=O)c3ccc(CNC(=O)CCOCCOCCOCCOCCNC(=O)CCc4ccc5n4[B-](F)(F)[N+]4=C(c6ccc[nH]6)C=CC4=C5)cc3C2=O)CC1	NanoBRET Fold Response	0.99

Consider the compound `CCCn1c(=O)c2[nH]c(-c3ccc(OCC(=O)NCCNC(=O)CCOCCNC(=O)c4ccc(CNC(=O)CCc5ccc6n5[B-](F)(F)[N+]5=C(c7ccc[nH]7)C=CC5=C6)cc4)cc3)nc2n(CCC)c1=O` . State its measured NanoBRET Fold Response.
0.91

Consider the compound O=C(CCc1ccc2n1[B-](F)(F)[N+]1=C(c3ccc[nH]3)C=CC1=C2)NCc1ccc(C(=O)NCCOCCC(=O)N[C@@H]2CC[C@@]3(O)[C@H]4Cc5ccc(O)c6c5[C@@]3(CCN4CC3CC3)[C@H]2O6)cc1 [Naltrexone-3-NB590] . State its measured NanoBRET Fold Response.
0.85

Consider the compound `O=C(CCc1ccc2n1[B-](F)(F)[N+]1=C(c3ccc[nH]3)C=CC1=C2)NCCOCCOCCNC(=O)OCCOCCN1CCN(C2=Nc3ccccc3Sc3ccccc32)CC1` . State its measured NanoBRET Fold Response.
1.01

Consider the compound `CC(C)N(CC[C@H](c1ccccc1)c1cc(CCNC(=O)c2ccc(CNC(=O)CCc3ccc4n3[B-](F)(F)[N+]3=C(c5ccc[nH]5)C=CC3=C4)cc2)ccc1O)C(C)C` . State its measured NanoBRET Fold Response.
0.78

---

NanoBRET Fold Response listing for selected compounds.
biological target: C5AR1 (Homo sapiens); construct: purchased Promega (in-house HiBiT-GPCR construct library, NanoBRET); test: NanoBRET screen HiBiT-C5AR1 in HEK293; format: binding; settings: C5AR1; tracer 0.1μM
Sequence (P21730 whole entry): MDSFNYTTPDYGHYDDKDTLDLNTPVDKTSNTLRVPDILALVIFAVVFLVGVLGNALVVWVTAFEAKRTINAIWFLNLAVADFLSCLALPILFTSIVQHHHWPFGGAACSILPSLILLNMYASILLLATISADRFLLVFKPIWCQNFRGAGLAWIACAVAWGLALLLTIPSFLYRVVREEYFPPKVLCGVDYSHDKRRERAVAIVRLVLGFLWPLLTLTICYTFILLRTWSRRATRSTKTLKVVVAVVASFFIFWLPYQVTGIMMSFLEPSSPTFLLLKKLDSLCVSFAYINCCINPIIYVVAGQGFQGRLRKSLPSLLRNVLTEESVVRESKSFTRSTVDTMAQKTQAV

compound	tested-on	result
O=C(CCc1ccc2n1[B-](F)(F)[N+]1=C(c3ccc[nH]3)C=CC1=C2)NCc1ccc(C(=O)NCCOCCC(=O)N[C@@H]2CC[C@@]3(O)[C@H]4Cc5ccc(O)c6c5[C@@]3(CCN4CC3CC3)[C@H]2O6)cc1 [Naltrexone-3-NB590]	C5AR1 (Homo sapiens)	0.94

Consider the compound `CC(C)N(CC[C@H](c1ccccc1)c1cc(CCNC(=O)CCOCCOCCOCCOCCNC(=O)CCc2ccc3n2[B-](F)(F)[N+]2=C(c4ccc[nH]4)C=CC2=C3)ccc1O)C(C)C` . State its measured NanoBRET Fold Response.
0.95

---

NanoBRET Fold Response listing for selected molecules.
biological target: CXCR2 (Homo sapiens, UniProt P25025); construct: purchased Promega (in-house HiBiT-GPCR construct library, NanoBRET); assay: NanoBRET screen HiBiT-CXCR2 in HEK293; format: binding; conditions: CXCR2; tracer 0.1μM
Sequence (P25025 whole entry): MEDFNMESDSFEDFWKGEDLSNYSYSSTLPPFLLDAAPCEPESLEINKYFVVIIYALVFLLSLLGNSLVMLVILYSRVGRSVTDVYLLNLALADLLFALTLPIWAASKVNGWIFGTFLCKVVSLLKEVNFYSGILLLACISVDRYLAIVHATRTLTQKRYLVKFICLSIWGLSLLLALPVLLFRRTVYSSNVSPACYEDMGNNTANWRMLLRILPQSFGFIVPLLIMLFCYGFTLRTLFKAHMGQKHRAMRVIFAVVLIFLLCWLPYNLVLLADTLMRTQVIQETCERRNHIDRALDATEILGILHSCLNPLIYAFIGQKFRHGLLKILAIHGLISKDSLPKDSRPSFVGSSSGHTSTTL
Just the number, please.

Below: 4 molecules and their reported NanoBRET Fold Response.
molecule	tested-on	NanoBRET Fold Response
Cc1cc2c(s1)Nc1ccccc1N=C2N1CCN(CCCNC(=O)CCOCCOCCOCCOCCNC(=O)CCc2ccc3n2[B-](F)(F)[N+]2=C(c4ccc[nH]4)C=CC2=C3)CC1	CXCR2 (Homo sapiens, UniProt P25025)	0.97
CC(C)N(CC[C@H](c1ccccc1)c1cc(CCNC(=O)CCOCCOCCOCCOCCNC(=O)CCc2ccc3n2[B-](F)(F)[N+]2=C(c4ccc[nH]4)C=CC2=C3)ccc1O)C(C)C	CXCR2 (Homo sapiens, UniProt P25025)	0.96
Cc1nc2n(c(=O)c1CCN1CCC(c3noc4cc(F)ccc34)CC1)CCCC2OC(=O)NCCOCCOCCOCCOCCNC(=O)CCc1ccc2n1[B-](F)(F)[N+]1=C(c3ccc[nH]3)C=CC1=C2 (centres unmarked)	CXCR2 (Homo sapiens, UniProt P25025)	1.09
CC(C)N(CC[C@H](c1ccccc1)c1cc(CCNC(=O)c2ccc(CNC(=O)CCc3ccc4n3[B-](F)(F)[N+]3=C(c5ccc[nH]5)C=CC3=C4)cc2)ccc1O)C(C)C	CXCR2 (Homo sapiens, UniProt P25025)	0.99

Now for the molecule whose NanoBRET Fold Response we want.
Consider the molecule `O=C(CCOCCOCCOCCOCCNC(=O)CCc1ccc2n1[B-](F)(F)[N+]1=C(c3ccc[nH]3)C=CC1=C2)NCCCN1CCN(C2=Nc3ccccc3Oc3ccc(Cl)cc32)CC1` . State its measured NanoBRET Fold Response.
1.06
